# experimental-system: T1, recombinant human CD70 (Flag-TNC-CD70) (human, UniProt P32970 39-193)
# T1 construct: extracellular domain; Captured by anti-Flag mAb in ELISA; as 'recombinant human CD70' immobilised on Biacore CM5 chips; TNC is for trimerisation; also called recombinant CD70; human recombinant CD70; not shown: Flag tag and TNC trimerisation domain
# T1 sequence (looked up): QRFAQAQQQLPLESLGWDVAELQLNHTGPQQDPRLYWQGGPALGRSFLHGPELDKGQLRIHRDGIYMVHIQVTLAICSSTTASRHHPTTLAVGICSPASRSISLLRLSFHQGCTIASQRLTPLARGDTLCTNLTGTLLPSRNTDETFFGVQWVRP
# measurement-description: inhibition ELISA; Flag-TNC-CD70 captured by anti-Flag mAb; competitor CD27-Fc
quantity-measured: IC50 (µg/mL)

| binder | quantity-measured | measured |
| --- | --- | --- |
| 19G10 chimeric llama-human mAb (antibody, human IgG1, V domains shown) VH: EVQLQESGGGVVQPGGSLRLSCAASGFTFDDYAMSWVRQAPGKGLEWVSSIYMYDSSTYYADSVKGRFTISTDNAKNTVYLQMNSLKSEDTAVYYCAKDINRSYGSSWSHFGPIFSSWGQGTQVTVSS VL: NFMLTQPSAVSVSLGQTARITCQGGYYTHWYQQKPGQAPVLVIYVNNNRPSGIPERFSGSSSGNTATLTISGAQAEDEAAYYCQSGSSSTIPVFGGGTKLTVLG | IC50 | 0.075 |
| 27B3 chimeric llama-human mAb (antibody, human IgG1, V domains shown, also called SIMPLE antibody 27B3; mAb 27B3) VH: EVQLVESGGGLVQPGGSLRLSCAASGFTFSVYYMNWVRQAPGKGLEWVSDINNEGGTTYYADSVKGRFTISRDNAKNTLTLQMNSLKPEDTALYYCVRDAGYSNHVPIFDSWGQGTQVIVAS VL: QAVVTQEPSLTVSPGGTVTLTCGLKSGSVTSTNFPTWYQQTPGQAPRLLIYNTNTRHSGVPSRFSGSISENKAALTITGAQPEDEAEYFCALFISNPSVEFGGGTQLTVLS | IC50 | 0.038 |
